Numbers sourced from paper PMC3834821.

Biological target: GST-DAZAP1 (UniProt Q9JII5)
Sequence: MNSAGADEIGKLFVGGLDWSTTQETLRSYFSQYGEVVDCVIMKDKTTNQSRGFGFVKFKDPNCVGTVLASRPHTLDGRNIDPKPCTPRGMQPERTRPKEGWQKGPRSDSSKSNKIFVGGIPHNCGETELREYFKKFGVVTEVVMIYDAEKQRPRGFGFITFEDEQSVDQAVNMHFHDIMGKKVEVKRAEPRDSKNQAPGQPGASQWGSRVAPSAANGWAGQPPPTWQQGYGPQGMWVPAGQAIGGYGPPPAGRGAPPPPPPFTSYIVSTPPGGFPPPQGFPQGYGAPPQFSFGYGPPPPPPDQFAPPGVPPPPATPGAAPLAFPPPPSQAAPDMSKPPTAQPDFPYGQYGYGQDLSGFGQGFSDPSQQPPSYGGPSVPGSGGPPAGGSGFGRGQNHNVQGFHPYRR
Assay: EMSA
Conditions: 20 mM HEPES pH 7.6, 3 mM MgCl2, 40 mM KCl, 2 mM DTT, 5% glycerol, 5 mg/ml heparin; room temperature, 15 min; native 5% PAGE in 0.25x TBE; RNA 0.5-3.0 nM for Kd
Each entry below carries its reported pKd.
In plain terms, pKd is the concentration in mol/L turned into minus its base-10 logarithm.

Chain	System Under Test	pKd
ACCUCCUAAUGGUAAGUACCCUACUUGUUCUUCAUUUCUU [Crem-Wt]	GST-DAZAP1 (UniProt Q9JII5)	7.72

The measured pKd associated with AUCAUAGAAUUUUAGUUUAUUCUGUGAACUUCAAAAUUGACU [Crisp2-dC] reads 7.15

The measured pKd associated with AAGGUGAUAUUUAGUAUAUAGUGACAAUUUAUG [Pot1a-dA] reads 8.15

The measured pKd associated with AAGUGUGAUAUAAUUCACUAUAGAGGU [Crisp2-dB] reads 7.09
